Sourced from patent US10548935B2

# Tested on: NK-1 receptor (Homo sapiens, UniProt P25103)
# Construct: host or cells: U2OS (Tango TACR1-bla)
# Sequence (P25103 whole entry): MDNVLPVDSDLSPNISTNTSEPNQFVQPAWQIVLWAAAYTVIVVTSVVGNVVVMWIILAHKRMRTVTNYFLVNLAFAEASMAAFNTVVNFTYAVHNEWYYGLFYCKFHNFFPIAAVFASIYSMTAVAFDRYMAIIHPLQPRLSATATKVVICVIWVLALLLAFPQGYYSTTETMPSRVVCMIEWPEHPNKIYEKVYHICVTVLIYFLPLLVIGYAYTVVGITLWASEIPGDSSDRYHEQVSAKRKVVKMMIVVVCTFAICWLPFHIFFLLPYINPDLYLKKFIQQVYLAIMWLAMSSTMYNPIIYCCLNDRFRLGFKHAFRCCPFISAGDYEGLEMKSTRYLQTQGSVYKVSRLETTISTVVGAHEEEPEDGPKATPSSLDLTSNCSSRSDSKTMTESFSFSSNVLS
# Assay explanation: Tango GPCR cell-based assay, TACR1-bla U2OS cells, NK-1 receptor inhibitors
# Conditions: 1 nM SAR9 Substance P agonist
Experimental readout: NK-1 receptor inhibitory effect

1) c1ccc2c(Cc3c[nH]c4ccccc34)c[nH]c2c1 ... surprisingly high
2) CC1=CC(=O)c2ccccc2C1=O ... surprisingly high
3) O=c1c(-c2ccc(O)cc2)coc2cc(O)cc(O)c12 ... surprisingly high

----------
# Tested on: h5HT3A receptor (Homo sapiens, UniProt P46098)
# Construct: expressed in transfected cells
# Sequence (P46098 24-478): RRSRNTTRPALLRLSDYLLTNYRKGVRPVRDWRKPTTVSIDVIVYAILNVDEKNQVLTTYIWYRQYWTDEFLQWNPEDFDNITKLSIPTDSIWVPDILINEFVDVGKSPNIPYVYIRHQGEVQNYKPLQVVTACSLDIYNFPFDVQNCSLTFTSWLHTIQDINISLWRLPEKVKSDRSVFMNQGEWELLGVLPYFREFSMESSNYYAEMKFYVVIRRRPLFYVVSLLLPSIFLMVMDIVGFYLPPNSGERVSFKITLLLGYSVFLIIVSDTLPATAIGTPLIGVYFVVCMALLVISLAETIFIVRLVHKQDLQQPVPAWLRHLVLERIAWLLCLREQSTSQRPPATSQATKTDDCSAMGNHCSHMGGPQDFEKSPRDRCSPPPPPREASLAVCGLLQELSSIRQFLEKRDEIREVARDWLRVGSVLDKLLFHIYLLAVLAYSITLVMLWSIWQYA
# Assay explanation: Assays for screening 5-HT3a receptor inhibitors (FLIPR calcium assay or aequorin-assisted serotonin receptor assay; dosage response curves)
# Format: cell-based
Experimental readout: 5-HT3a receptor inhibitory effect

1. CCCCCC/C=C\CCCCCCCC(=O)O ... surprisingly high
2. Cc1c(O)ccc(O)c1C ... surprisingly high
3. C[C@H]1[C@H](C)CC[C@]2(C(=O)O)CC[C@]3(C)C(=CC[C@@H]4[C@@]5(C)C[C@@H](O)[C@H](O)[C@@](C)(CO)[C@@H]5CC[C@]43C)[C@H]12 ... surprisingly high
